tested on: MCF7; test: Cytotoxicity against human MCF7 cells; assay type: functional, cell-based
measured_parameter: IC50 (nM)
Lab book: enter the figure in nM, no units written.

**Query** Endpoint output: IC50 of NC(=O)c1csc([C@@H]2O[C@H](CO)[C@@H](O)[C@H]2O)n1 [TIAZOFURIN] . Value?
**Result** 260

###

system: Jurkat; assay: Cytotoxicity against human Jurkat cells after 72 hrs by MTT assay; format: functional, cell-based
Below, each entry is listed alongside its reported pIC50.
Please express pIC50 as -log10 of the molar concentration.

**Query** So what's the measured pIC50 for this one? C[C@@]1(c2nc(C(N)=O)cs2)O[C@H]2O[C@H](CO)[C@H](O)[C@H]2O1
**Result** 6.23

Next:
**Query** Returns the measured pIC50 for the input compound. Input: C[C@]1(c2nc(C(N)=O)cs2)O[C@H]2O[C@H](CO)[C@H](O)[C@H]2O1
**Result** 6.19

**Query** // query pIC50 value for entry NC(=O)c1csc([C@@H]2O[C@H](CO)[C@@H](O)[C@H]2O)n1
**Result** 7.40

**Query** Could you tell me which pIC50 is on file for NC(=O)c1csc([C@@H]2O[C@H](CO)[C@H](O)[C@H]2O)n1 ?
**Result** 6.28

###

test system: MRC5; assay: Cytotoxicity against human MRC5 cells after 72 hrs by MTT assay; assay type: cell-based; details: MRC5, 72 h
measured_parameter: IC50

These recorded examples may help you get a feel for the data.
**Query** Query for MRC5: what IC50 does the record show for C[C@@]1(c2nc(C(N)=O)cs2)O[C@H]2O[C@H](CO)[C@H](O)[C@H]2O1 ?
**Result** > 100 µM

**Query** Missing value: IC50, MRC5, entry NC(=O)c1csc([C@@H]2O[C@H](CO)[C@@H](O)[C@H]2O)n1 . Fill in?
**Result** 0.36 µM

**Query** Please state recorded IC50 (tested on MRC5) of NC(=O)c1csc([C@@H]2O[C@H](CO)[C@H](O)[C@H]2O)n1
**Result** > 100 µM

Field: next compound
**Query** Notebook: pull reported IC50 for MRC5, entry C[C@]1(c2nc(C(N)=O)cs2)O[C@H]2O[C@H](CO)[C@H](O)[C@H]2O1
**Result** > 100 µM
